Attribution: ChEMBL document CHEMBL1124915

target: Renin (Homo sapiens); experiment: Percent inhibition against human renin at the concentration of 100 uM
Sequence (P00797 whole entry): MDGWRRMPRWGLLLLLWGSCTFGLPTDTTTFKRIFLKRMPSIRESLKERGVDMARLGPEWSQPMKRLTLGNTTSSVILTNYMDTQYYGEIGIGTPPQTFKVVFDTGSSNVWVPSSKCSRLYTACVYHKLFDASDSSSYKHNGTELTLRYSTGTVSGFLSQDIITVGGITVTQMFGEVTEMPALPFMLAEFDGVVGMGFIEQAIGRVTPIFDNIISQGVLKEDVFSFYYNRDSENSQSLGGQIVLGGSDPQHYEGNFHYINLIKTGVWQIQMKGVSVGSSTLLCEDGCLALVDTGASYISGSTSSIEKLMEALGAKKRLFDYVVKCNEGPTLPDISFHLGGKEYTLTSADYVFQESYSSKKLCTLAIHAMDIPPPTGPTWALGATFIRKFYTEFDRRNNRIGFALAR
Readout kind: inhibition (%)
Give just the numeric value; % need not be written.

Please give measured inhibition of the following entry: CC(C)CCNC(=O)C(Cc1c[nH]c2ccccc12)NC(=O)[C@H](CCCCN)N1C(=O)[C@H](Cc2ccccc2)NC(=O)CN[C@H](Cc2ccccc2)C1=O (stereo in doubt)
57

Return the recorded inhibition value; entry: CC[C@H](C)[C@@H]1NCC(=O)N([C@@H](CCCCN)C(=O)NC(Cc2c[nH]c3ccccc23)C(=O)NCCC(C)C)C(=O)[C@H](Cc2ccccc2)NC1=O (stereo in doubt)
84

Give inhibition for CC(C)CCNC(=O)C(Cc1c[nH]c2ccccc12)NC(=O)[C@H](CCCCN)N1C(=O)[C@H](Cc2ccccc2)NCC(=O)N[C@@H](Cc2ccccc2)C1=O (stereo in doubt)
52

Give recorded inhibition. CC(C)CCNC(=O)C(Cc1c[nH]c2ccccc12)NC(=O)[C@H](CCCCN)N1C(=O)CN[C@H](CC(C)C)C(=O)N[C@@H](Cc2ccccc2)C1=O (stereo in doubt)
88

Dear colleague, please send me the reported inhibition for CCC(C)CNC(=O)C(Cc1c[nH]c2ccccc12)NC(=O)[C@H](CCCCN)N1C(=O)CC(C)(C)CC(=O)N[C@@H](Cc2ccccc2)C1=O (stereo in doubt) when you can.
63

Look up inhibition of CC(C)CCNC(=O)C(Cc1c[nH]c2ccccc12)NC(=O)[C@H](CCCCN)N1C(=O)CSCC(=O)N[C@@H](Cc2ccccc2)C1=O (stereo in doubt) and report it.
66

* * *

biological target: Renin (Homo sapiens); experiment: Inhibition of human renin
pIC50: −log10 of the molar value.
Classification field: Met = pIC50 at or over 6; Not met = pIC50 under 6.

Record CC(C)CCNC(=O)C(Cc1c[nH]c2ccccc12)NC(=O)[C@H](CCCCN)N1C(=O)COCC(=O)N[C@@H](Cc2ccccc2)C1=O (stereo in doubt) ; criterion: pIC50 no lower than 6. Met?
Not met

For this compound, is measured pIC50 6 or higher? CC(C)CCNC(=O)C(Cc1c[nH]c2ccccc12)NC(=O)[C@H](CCCCN)N1C(=O)CN[C@H](Cc2ccccc2)C(=O)N[C@@H](Cc2ccccc2)C1=O (stereo in doubt)
Not met

Confirm if pIC50 reported for the compound CC(C)CC(C)CNC(=O)C(Cc1c[nH]c2ccccc12)NC(=O)[C@H](CCCCN)N1C(=O)CC(C)CC(=O)N[C@@H](Cc2ccccc2)C1=O (stereo in doubt) is 6 or above.
Met
